Entry source: PubChem BioAssay AID1159580

# EXPERIMENT DESCRIPTION: chemical genetic growth profiling, strain panel (AID 1159580);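 further: tested at 20 µM; growth read once vehicle control cultures reached saturation at 30 °C; 1 = growth at the plate median or of vehicle wells; lower values mean less growth of the strain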
# ASSAY CONTEXT: S. cerevisiae deletion strains, growth OD, locus YOR184W, strain ser1, hits give low values
In all, about 5,500 compounds went through this assay and about 2,000 (36%) were called active. Inconclusive results (about 18%) are left out. This is one part of the list.
MEASURED METRIC: normalized growth

MOLECULE: C[n+]1c2cc(N)ccc2cc2ccc(N)cc21
OBS VALUE: 0.664
--
MOLECULE: Cc1[nH]c2ccccc2c1CN(C)C
OBS VALUE: 1.02
--
MOLECULE: C=C[C@@](C)(O)CCC1C(=C)C[C@H](O)C2C(C)(C)CCCC12C (stereo not given in full)
OBS VALUE: 1.01
--
MOLECULE: CNC(=O)O/N=C(\C)SC
OBS VALUE: 0.993
--
MOLECULE: COc1ccc(OC)c(C(O)CNC(=O)CN)c1 (stereo not given)
OBS VALUE: 0.97
--
MOLECULE: CC1(C)CCC[C@@]2(C)C1[C@@H](O)C[C@]1(C)C2CC[C@@H]2[C@@]3(C)CC[C@H](C(C)(C)O)[C@@H]3CC[C@@]21C (stereo not given in full)
OBS VALUE: 1.01
--
MOLECULE: C=C[C@@](C)(O)CCC1C(=C)C[C@H](OC(C)=O)C2C(C)(C)CCCC12C (stereo not given in full)
OBS VALUE: 0.928
--
MOLECULE: O=c1cccc2ccc(O)c(O)c2c1O
OBS VALUE: 0.332
--
MOLECULE: CCC(C)C(=O)OC1CC2(C)C(c3ccoc3)OC(=O)CC23OC2(C)OC34C(OC(=O)C(C)C)C3(O)C(OC(=O)C5(C)OC5C)C5(C)CC3(O)C(C)(C5C(=O)OC)C14O2 (stereo not given)
OBS VALUE: 1.04
--
MOLECULE: COc1ccc2c(c1)OC1(O)COc3cc(OC)c(OC)cc3C1=C2 (stereo not given)
OBS VALUE: 0.899

---

# EXPERIMENT DESCRIPTION: chemical genetic growth profiling, strain panel (AID 1159580)
# ASSAY CONTEXT: S. cerevisiae deletion strains, growth OD, locus YLR039C, strain RIC1
The campaign covered roughly 5,500 compounds. About 2,000 (36%) were called active. Another 18% or so got no clear call; they are omitted. Rule as the data show it: active = normalized growth mostly below about 0.91 (no sharp cut-off); inconclusive = no clear call, values can overlap the other calls; inactive = mostly above about 0.92. This is one part of the list.
Possible outcomes: active, inactive

COMPOUND: O=C(CCc1nc(-c2ccc(Cl)cc2)no1)NNS(=O)(=O)c1cc(Cl)c(Cl)cc1Cl
LABEL: inactive

COMPOUND: COC(=O)[C@@H]1OC(=O)C2OC23[C@@]1(C)CCC1[C@]2(C)C(C[C@H](O)[C@]13C)C(C)(C)[C@H](OC(C)=O)C[C@@H]2OC(C)=O (some centres not stated)
LABEL: inactive

COMPOUND: C/C(=N/O)c1sc2nc(C(F)(F)F)nn2c1C
LABEL: inactive

COMPOUND: CCc1nnc(N=CNO)s1
LABEL: inactive

COMPOUND: CCOC(=O)Cc1csc(N=CNO)n1
LABEL: inactive

COMPOUND: COc1cc2c(cc1OC)C(=O)c1ccc(OC)c(OC)c1OCC(=O)C2
LABEL: inactive

COMPOUND: COC(=O)c1ccc(Cl)cc1NS(=O)(=O)c1ccc(OC)c(OC)c1
LABEL: inactive

COMPOUND: COc1ccc(-n2c(=S)[nH]c(=O)c3cccnc32)cc1
LABEL: inactive

COMPOUND: COc1ccc(C(=O)O)cc1OC
LABEL: inactive

COMPOUND: Cc1oc(C(C)(C)C)cc1C(=O)Nc1ccc([N+](=O)[O-])cc1
LABEL: active

COMPOUND: C=CCc1ccc(O)c(OC)c1
LABEL: active

COMPOUND: C=CCc1ccc(OC(=O)c2ccccc2)c(OC)c1
LABEL: inactive

---

# EXPERIMENT DESCRIPTION: chemical genetic growth profiling, strain panel (AID 1159580);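 further: tested at 20 µM; growth read once vehicle control cultures reached saturation at 30 °C; 1 = growth at the plate median or of vehicle wells; lower values mean less growth of the strain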
# ASSAY CONTEXT: S. cerevisiae deletion strains, growth OD, locus YIL073C, strain SPO22, hits give low values
In all, about 5,500 compounds went through this assay and about 2,000 (36%) were called active. Another 18% or so got no clear call; they are omitted. This is one part of the list.
// assign rule met if normalized growth falls strictly below 1, else rule not met (ties count as rule not met)

COMPOUND: O=S(=O)(O)CCS
LABEL: rule met
--
COMPOUND: CN1CC(CO)=C[C@@H]2c3cccc4[nH]cc(c34)C[C@H]21
LABEL: rule not met
--
COMPOUND: CCC(C)C(=O)O[C@@H]1C[C@@]2(C)[C@H](c3ccoc3)OC(=O)CC23OC2(C)O[C@]14[C@]1(C)[C@@H](CC(=O)OC)C5(C)CC1(O)[C@](O)(C5OC(=O)C1(C)OC1C)[C@@H](OC(C)=O)[C@]34O2 (some centres undefined)
LABEL: rule not met
--
COMPOUND: Oc1ccc2c(c1)O[C@H](c1ccc(O)c(O)c1)[C@@H](O)C2
LABEL: rule not met
--
COMPOUND: Cc1ccc(S(=O)(=O)NC(=O)NN2CCCCCC2)cc1
LABEL: rule met
--
COMPOUND: CNCCC(Oc1ccc(C(F)(F)F)cc1)c1ccccc1 (centres undefined)
LABEL: rule not met
--
COMPOUND: COc1ccc(C(=O)CC(=O)O)c2c1C=CC(C)(C)O2
LABEL: rule not met
--
COMPOUND: CC1(C)S[C@@H]2[C@H](NC(=O)[C@H](N)c3ccccc3)C(=O)N2[C@H]1C(=O)O
LABEL: rule not met
--
COMPOUND: CCCCCCC(C)OC(=O)COc1cc(Cl)c(Cl)cc1Cl (centres undefined)
LABEL: rule met
--
COMPOUND: CCCCNC(=O)NS(=O)(=O)c1ccc(C)cc1
LABEL: rule met
--
COMPOUND: O=C1c2ccc(O)cc2O[C@H](c2cc(O)c(O)c(O)c2)[C@H]1O
LABEL: rule not met
--
COMPOUND: COC(=O)C[C@H]1C2(C)CC34OC5(C)O[C@@]6([C@H](OC(C)=O)C(OC(C)=O)[C@]7(C)C(/C(=C(/O)C(C)C)C(=O)O[C@H]7c7ccoc7)[C@@]6(O5)[C@H](OC(C)=O)[C@@]3(O)C2OC(=O)C(C)C)[C@]14C (some centres undefined)
LABEL: rule met

---

# EXPERIMENT DESCRIPTION: chemical genetic growth profiling, strain panel (AID 1159580);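 further: tested at 20 µM; growth read once vehicle control cultures reached saturation at 30 °C; 1 = growth at the plate median or of vehicle wells; lower values mean less growth of the strain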
# ASSAY CONTEXT: S. cerevisiae deletion strains, growth OD, locus YNL183C, strain NPR1, hits give low values
Screen size: about 5,500 compounds; about 2,000 (36%) were called active. Not shown: some 18% with an inconclusive outcome. Some of the results follow.
The following compounds are listed with their measured normalized growth values.

GIVEN SMILES: CC[C@@]1(O)C[C@H](O)c2c(cc3c(c2O)C(=O)c2c(O)ccc(O)c2C3=O)[C@H]1C(=O)OC
normalized growth: 0.929
//
GIVEN SMILES: COC(=O)/C=C/C(C)=C/C=C/C(C)=C/C=C/C=C(C)/C=C/C=C(C)/C=C/C(=O)O
normalized growth: 0.908
//
GIVEN SMILES: COc1ccc(C(=O)O)cc1OC
normalized growth: 0.921
//
GIVEN SMILES: C=CCc1ccc(OC(=O)c2ccccc2)c(OC)c1
normalized growth: 0.933
//
GIVEN SMILES: CC1(C)CC(=O)C=C(Sc2nc3ccccc3o2)C1
normalized growth: 0.951
//
GIVEN SMILES: CC[C@@]1(O)C[C@H](O[C@H]2C[C@H](N(C)C)[C@H](O)[C@H](C)O2)c2c(cc3c(c2O)C(=O)c2c(O)cccc2C3=O)[C@H]1C(=O)OC
normalized growth: 0.926
//
GIVEN SMILES: CCCCCCCCC(=O)NCc1ccc(O)c(OC)c1
normalized growth: 0.93
//
GIVEN SMILES: C=CCc1ccc(O)c(OC)c1
normalized growth: 0.928
//
GIVEN SMILES: CC[C@@]1(O)C[C@H](O[C@H]2C[C@H](N(C)C)[C@H](O)[C@H](C)O2)c2c(cc3c(c2O)C(=O)c2c(O)ccc(O)c2C3=O)[C@H]1C(=O)OC
normalized growth: 0.941

---

# EXPERIMENT DESCRIPTION: chemical genetic growth profiling, strain panel (AID 1159580);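 further: tested at 20 µM; growth read once vehicle control cultures reached saturation at 30 °C; 1 = growth at the plate median or of vehicle wells; lower values mean less growth of the strain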
# ASSAY CONTEXT: S. cerevisiae deletion strains, growth OD, locus YDR150W, strain NUM1
Out of some 5,500 compounds screened, about 2,000 (36%) were called active. Another 18% or so got no clear call; they are omitted. Rule as the data show it: active = normalized growth mostly below about 0.91 (no sharp cut-off); inconclusive = no clear call, values can overlap the other calls; inactive = mostly above about 0.92. Some of the results follow.
Possible outcomes: active, inactive

MOLECULE: O=C1NCC2(CCN(CCc3ccccc3)CC2)O1
LABEL: inactive

MOLECULE: CNCCC(Oc1ccc(C(F)(F)F)cc1)c1ccccc1 (stereo not given)
LABEL: inactive

MOLECULE: CC#C[C@]1(O)CC[C@H]2[C@@H]3CCC4=CC(=O)CCC4=C3[C@@H](c3ccc(N(C)C)cc3)C[C@@]21C
LABEL: inactive

MOLECULE: OC(CN1CCN(c2cccc(Cl)c2)CC1)C(c1ccccc1)c1ccccc1 (stereo not given)
LABEL: inactive

MOLECULE: Cc1ccc(C)n1-c1ccc(C(=O)NNC(=O)c2ccc3nccnc3c2)cc1
LABEL: inactive

MOLECULE: COC(=O)c1cc(=O)c(O)c2c(O)c(O)ccc2c1
LABEL: active

MOLECULE: COc1ccc(OC)c(C(O)CNC(=O)CN)c1 (stereo not given)
LABEL: inactive

MOLECULE: CC(=O)S[C@@H]1CC2=CC(=O)CC[C@]2(C)[C@H]2CC[C@@]3(C)[C@@H](CC[C@@]34CCC(=O)O4)C12 (stereo not given in full)
LABEL: inactive

MOLECULE: Cc1ccc(C)n1-c1ccc(C(=O)NNS(=O)(=O)c2ccc(Cl)cc2)cc1
LABEL: inactive

MOLECULE: OC1(c2ccc(F)cc2)Cc2ccccc2C2=NCCN21 (stereo not given)
LABEL: inactive

MOLECULE: CCCCCCCCCCCCCCCCCC(=O)NCC(COP(=O)([O-])OCC[N+](C)(C)C)OCC (stereo not given)
LABEL: active

MOLECULE: S=C1NCN(CCN2CCCC2)CN1
LABEL: inactive

MOLECULE: CN1C2CCC1CC(OC(c1ccccc1)c1ccc(Cl)cc1)C2 (stereo not given)
LABEL: inactive

MOLECULE: COc1c(Br)cc([N+](=O)[O-])c(OC)c1C(N)=O
LABEL: inactive

MOLECULE: CC(C)(C)S(=O)(=O)/C(C#N)=C/c1ccc(F)cc1F
LABEL: inactive

MOLECULE: C[N+](C)(C)CCC(=O)c1cccc2ccccc12
LABEL: inactive

MOLECULE: C=CCc1ccc(O)c(OC)c1
LABEL: inactive

MOLECULE: CN1CC(CO)=C[C@@H]2c3cccc4[nH]cc(c34)C[C@H]21
LABEL: inactive

MOLECULE: Cn1c2c(c(=O)n(C)c1=O)CN(CCCCCCO)CN2
LABEL: inactive

MOLECULE: C=CCc1ccc(OC(=O)c2ccccc2)c(OC)c1
LABEL: inactive

MOLECULE: CCOC(=O)Cc1csc(N=CNO)n1
LABEL: inactive

MOLECULE: CN1C2CCC1CC(OC(c1ccccc1)c1ccccc1)C2 (stereo not given)
LABEL: inactive

MOLECULE: C[C@]12CCC(=O)C=C1C=CC1C2CC[C@@]2(C)C1CC[C@@]21CCC(=O)O1 (stereo not given in full)
LABEL: inactive

MOLECULE: Clc1ccc(C(OCCN2CCCCC2)c2ccccc2)cc1 (stereo not given)
LABEL: inactive

MOLECULE: CCc1nnc(N=CNO)s1
LABEL: inactive

MOLECULE: CNCC[C@@H](Oc1ccc(C(F)(F)F)cc1)c1ccccc1
LABEL: inactive

MOLECULE: CCCCCCC(C)OC(=O)COc1cc(Cl)c(Cl)cc1Cl (stereo not given)
LABEL: inactive

MOLECULE: Cc1ccc(C(=O)Nc2ccc(S(=O)(=O)O)c3cc(S(=O)(=O)O)cc(S(=O)(=O)O)c23)cc1NC(=O)c1cccc(NC(=O)Nc2cccc(C(=O)Nc3cc(C(=O)Nc4ccc(S(=O)(=O)O)c5cc(S(=O)(=O)O)cc(S(=O)(=O)O)c45)ccc3C)c2)c1
LABEL: inactive

MOLECULE: O=C(O)/C=C/c1ccc(O)c(O)c1
LABEL: inactive

MOLECULE: Cc1nc(N)ncc1Sc1ccccc1
LABEL: inactive

MOLECULE: OCc1cc(C(O)CNCCCCCCOCCCCc2ccccc2)ccc1O (stereo not given)
LABEL: inactive

MOLECULE: CC1(C)S[C@@H]2[C@H](NC(=O)[C@H](N)c3ccccc3)C(=O)N2[C@H]1C(=O)O
LABEL: inactive

MOLECULE: S=c1nc2[nH]c3ccccc3c2n[nH]1
LABEL: inactive

MOLECULE: CCCCCCCCC(=O)NCc1ccc(O)c(OC)c1
LABEL: inactive

MOLECULE: Cc1onc(-c2c(Cl)cccc2Cl)c1-c1nc(-c2ccc3c(c2)OCCO3)cs1
LABEL: inactive

MOLECULE: OCC(O)CN1CCN(c2ccccc2)CC1 (stereo not given)
LABEL: inactive

MOLECULE: Cc1nn(C)c(C)c1[N+](=O)[O-]
LABEL: inactive

MOLECULE: CN1C2CCC1CC(OC(c1ccccc1)c1ccccc1N)C2 (stereo not given)
LABEL: inactive

MOLECULE: CNC(=O)O/N=C(\C)SC
LABEL: inactive

MOLECULE: C[C@@H]1CC(Cl)CC[C@H]1C(=O)OC(C)(C)C (stereo not given in full)
LABEL: inactive

MOLECULE: COC(=O)c1ccc2c(c1)N(C)S(=O)(=O)CC2=O
LABEL: inactive

MOLECULE: Nc1ncnc2c1ncn2C1OC2COP(O)(=S)O[C@@H]2[C@@H]1O (stereo not given in full)
LABEL: inactive

MOLECULE: COC(=O)c1ccc(Cl)cc1NS(=O)(=O)c1ccc(OC)c(OC)c1
LABEL: inactive

MOLECULE: CCC(C)C(=O)OC1CC2(C)C(c3ccoc3)OC(=O)CC23OC2(C)OC34C(OC(=O)C(C)C)C3(O)C(OC(=O)C5(C)OC5C)C5(C)CC3(O)C(C)(C5C(=O)OC)C14O2 (stereo not given)
LABEL: inactive

MOLECULE: O=C(CCc1nc(-c2ccc(Cl)cc2)no1)NNS(=O)(=O)c1cc(Cl)c(Cl)cc1Cl
LABEL: inactive
